Listed below: DC50 values for each entry.
Measurement target: IRAK4 (Homo sapiens)
Construct: endogenous in cells; host or cells: OCI-LY10
Sequence (Q9NWZ3 1-460): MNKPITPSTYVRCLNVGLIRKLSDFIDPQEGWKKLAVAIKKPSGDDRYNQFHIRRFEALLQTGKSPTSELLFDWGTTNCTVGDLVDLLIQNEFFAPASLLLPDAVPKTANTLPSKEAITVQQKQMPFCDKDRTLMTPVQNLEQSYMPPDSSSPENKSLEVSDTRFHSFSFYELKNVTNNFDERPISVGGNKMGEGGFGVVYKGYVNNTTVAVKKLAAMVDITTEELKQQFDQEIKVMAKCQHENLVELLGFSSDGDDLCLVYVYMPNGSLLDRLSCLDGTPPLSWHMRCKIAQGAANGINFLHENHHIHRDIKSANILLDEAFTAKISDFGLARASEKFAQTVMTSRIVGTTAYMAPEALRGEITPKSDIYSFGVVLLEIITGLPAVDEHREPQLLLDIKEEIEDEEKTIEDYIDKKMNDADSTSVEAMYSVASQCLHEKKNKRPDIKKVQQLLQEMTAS
Assay explanation: IRAK4 MSD Degradation in OCI-LY10
Assay type: cell-based
Test parameters: OCI-LY10 cells, Meso Scale Discovery, incubated 4 to 24 hours

Here is how some compounds turned out for DC50.
{"Compound": "N#Cc1cc2nn([C@H]3CC[C@H](CN4CCN(c5cccc6c(N7CCC(=O)NC7=O)cncc56)CC4)CC3)cc2cc1NC(=O)c1cccc(C(F)(F)F)n1", "DC50": "10 to 50 nM"}
{"Compound": "Cn1c(=O)n(C2CCC(=O)NC2=O)c2cc(F)cc(C3CCN(C[C@H]4CC[C@H](n5cc6cc(NC(=O)c7cccc(C(F)(F)F)n7)c(F)cc6n5)CC4)CC3)c21 (stereo partly drawn)", "DC50": "< 10 nM"}

Kindly review the next compound as well.
Entry CC(C)Nc1cc(-c2ccc3cc(C#N)cnn23)ncc1-c1cn([C@H]2CC[C@H](CN3CCN(c4cccc5c4n(C)c(=O)n5C4CCC(=O)NC4=O)CC3)CC2)nn1 (stereo partly drawn) — recorded DC50 = 10 to 50 nM
